Target: ACE (Oryctolagus cuniculus)
Construct: purchased Sigma (St. Louis, MO, United States)
Sequence (P12822 34-1310): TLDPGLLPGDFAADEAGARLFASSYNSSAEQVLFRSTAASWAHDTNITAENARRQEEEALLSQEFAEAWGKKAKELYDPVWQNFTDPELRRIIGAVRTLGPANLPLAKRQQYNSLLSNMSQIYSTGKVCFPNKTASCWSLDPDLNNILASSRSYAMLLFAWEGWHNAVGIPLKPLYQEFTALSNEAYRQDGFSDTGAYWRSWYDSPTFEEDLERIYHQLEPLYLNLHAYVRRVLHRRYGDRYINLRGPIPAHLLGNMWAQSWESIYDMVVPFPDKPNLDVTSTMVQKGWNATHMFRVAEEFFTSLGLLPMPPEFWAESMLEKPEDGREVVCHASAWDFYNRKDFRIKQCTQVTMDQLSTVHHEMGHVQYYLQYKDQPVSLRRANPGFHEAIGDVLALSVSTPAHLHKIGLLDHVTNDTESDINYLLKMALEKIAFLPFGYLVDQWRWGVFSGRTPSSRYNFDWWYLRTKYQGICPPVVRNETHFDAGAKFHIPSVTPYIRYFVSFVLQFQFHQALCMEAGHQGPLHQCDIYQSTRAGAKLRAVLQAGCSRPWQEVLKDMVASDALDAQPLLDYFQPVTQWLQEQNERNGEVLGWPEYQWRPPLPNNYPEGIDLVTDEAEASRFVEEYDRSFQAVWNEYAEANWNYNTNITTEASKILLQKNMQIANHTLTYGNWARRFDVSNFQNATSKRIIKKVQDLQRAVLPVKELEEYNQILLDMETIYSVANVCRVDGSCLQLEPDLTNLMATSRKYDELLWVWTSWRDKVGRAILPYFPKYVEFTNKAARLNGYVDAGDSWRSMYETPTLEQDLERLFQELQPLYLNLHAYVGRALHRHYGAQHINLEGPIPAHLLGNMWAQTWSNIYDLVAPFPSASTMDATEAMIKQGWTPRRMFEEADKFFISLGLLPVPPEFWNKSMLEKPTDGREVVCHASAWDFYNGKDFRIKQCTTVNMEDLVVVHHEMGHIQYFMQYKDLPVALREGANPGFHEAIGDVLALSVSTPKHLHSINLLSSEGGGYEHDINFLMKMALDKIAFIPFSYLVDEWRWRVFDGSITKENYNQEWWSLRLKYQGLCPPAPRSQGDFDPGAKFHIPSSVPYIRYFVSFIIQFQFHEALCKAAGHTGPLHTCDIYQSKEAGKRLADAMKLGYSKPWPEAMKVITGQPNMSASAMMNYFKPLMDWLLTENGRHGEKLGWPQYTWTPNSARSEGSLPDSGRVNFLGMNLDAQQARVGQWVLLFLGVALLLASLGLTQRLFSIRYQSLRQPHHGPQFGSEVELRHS
Assay: Stability of ACE inhibitory activity under simulated gastrointestinal hydrolysis
Type: in vitro ADME
Settings: simulated gastric digest (pepsin 0.35 mg/mL, pH 2.0) 37°C 80 min, then intestinal digest (pancreatin, bile salt, pH 6.8) 37°C 150 min; regression y = 13.536ln(x) ‒ 17.297, R2 = 0.9528; read-out: IC50 against ACE after gastrointestinal digestion
Where no end group is shown, it is not given here.
readout: pIC50
Remember the convention: pIC50 equals -log10 of concentration in molar.

[ask] Identify pIC50 associated with the sequence `EVPQAYIP`
[reply] 3.84

====

target: ACE (Oryctolagus cuniculus, UniProt P12822); construct: purchased Sigma (St. Louis, MO, United States); test: ACE inhibitory activity (HHL substrate, hippuric acid absorbance at 228 nm); assay type: biochemical; conditions: synthesized peptide, untreated; ACE 25 mU, HHL 8.3 mmol/L, 37°C, 60 min, absorbance 228 nm; from regression y = 10.985 ln(x) ‒ 0.8859, R2 = 0.9458; read-out: ACE inhibition capacity (IC50)
Where no end group is shown, it is not given here.
readout: pIC50
Remember the convention: pIC50 equals -log10 of concentration in molar.

[ask] Identify pIC50 associated with the sequence `EVPQAYIP`
[reply] 3.99

Source of measurements: paper PMC10433220
